# ASSAY_SYSTEM: calpain-I isolated from human erythrocytes (Homo sapiens, UniProt P07384)
# Construct: calpain-I—isolated from human erythrocytes
# Sequence (P07384 whole entry): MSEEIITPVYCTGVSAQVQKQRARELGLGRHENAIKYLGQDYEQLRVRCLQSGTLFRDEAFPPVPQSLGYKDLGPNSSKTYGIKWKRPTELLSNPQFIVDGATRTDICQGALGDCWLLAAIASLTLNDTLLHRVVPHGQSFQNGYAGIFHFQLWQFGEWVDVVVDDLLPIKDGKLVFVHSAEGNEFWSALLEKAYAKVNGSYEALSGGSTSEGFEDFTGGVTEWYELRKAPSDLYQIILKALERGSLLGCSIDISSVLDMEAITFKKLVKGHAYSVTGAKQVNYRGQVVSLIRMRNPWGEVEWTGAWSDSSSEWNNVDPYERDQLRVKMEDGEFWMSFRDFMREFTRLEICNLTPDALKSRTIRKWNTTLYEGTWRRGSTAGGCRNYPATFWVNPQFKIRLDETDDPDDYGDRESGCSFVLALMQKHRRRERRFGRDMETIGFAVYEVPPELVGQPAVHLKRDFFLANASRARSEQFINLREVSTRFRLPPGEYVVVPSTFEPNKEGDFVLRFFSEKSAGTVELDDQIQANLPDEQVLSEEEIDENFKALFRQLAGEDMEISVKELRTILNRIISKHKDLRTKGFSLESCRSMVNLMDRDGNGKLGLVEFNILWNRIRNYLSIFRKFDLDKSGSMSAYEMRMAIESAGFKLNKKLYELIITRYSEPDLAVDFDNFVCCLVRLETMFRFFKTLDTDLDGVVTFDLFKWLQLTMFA
# Sequence (P04632 whole entry partner): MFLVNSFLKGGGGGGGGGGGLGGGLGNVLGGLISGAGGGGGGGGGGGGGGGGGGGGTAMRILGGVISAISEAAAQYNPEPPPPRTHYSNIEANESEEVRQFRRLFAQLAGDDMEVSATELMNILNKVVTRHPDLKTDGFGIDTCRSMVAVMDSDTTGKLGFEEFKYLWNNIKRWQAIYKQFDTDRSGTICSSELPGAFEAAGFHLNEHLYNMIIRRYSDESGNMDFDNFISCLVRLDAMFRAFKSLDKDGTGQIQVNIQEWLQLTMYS
# ASSAY_DETAILS: Calpain I enzyme inhibition, kinetic fluorescence assay
# CONDITION_NOTES: apparent Ki from IC50 by Cheng-Prussoff; human erythrocyte calpain-I
ATTRIBUTE_MEASURED: Ki

So what does the record say about Ki for CONC(=O)C(=O)C(Cc1ccc(F)cc1)NC(=O)c1cccnc1-n1ccc(-c2ccccc2)n1 (centres unmarked) ?
300 to 600 nM

Next record, please: CCONC(=O)C(=O)C(Cc1ccc(F)cc1)NC(=O)c1cccnc1-n1ccc(-c2ccccc2)n1 (centres unmarked)
< 200 nM

Okay, and C=CCONC(=O)C(=O)C(Cc1ccccc1)NC(=O)c1cccnc1-n1ccc(-c2ccccc2)n1 (centres unmarked) ?
< 200 nM

Also need CONC(=O)C(=O)C(Cc1ccccc1)NC(=O)c1cccnc1-n1ccc(-c2ccccc2)n1 (centres unmarked) , thanks.
< 200 nM

Continue with CC(C)(C)ONC(=O)C(=O)C(Cc1ccccc1)NC(=O)c1cccnc1-n1ccc(-c2ccccc2)n1 (centres unmarked)
300 to 600 nM

Here is the next compound: CC(C)(C)CONC(=O)C(=O)C(Cc1ccccc1)NC(=O)c1cccnc1-n1ccc(-c2ccccc2)n1 (centres unmarked)
200 to 300 nM

Try CONC(=O)C(=O)C(Cc1ccccc1)NC(=O)c1cccnc1-n1cc(F)c(-c2ccccc2)n1 (centres unmarked) next.
< 200 nM

Consider next the compound CCONC(=O)C(=O)C(Cc1ccccc1)NC(=O)c1cccnc1-n1ccc(-c2ccccc2)n1 (centres unmarked) in the same way.
< 200 nM

Would you mind doing CONC(=O)C(=O)C(Cc1cccc(F)c1)NC(=O)c1cccnc1-n1ccc(-c2ccccc2)n1 (centres unmarked) as well?
200 to 300 nM

Another compound to look at: O=C(NOC1CCCC1)C(=O)C(Cc1ccccc1)NC(=O)c1cccnc1-n1ccc(-c2ccccc2)n1 (centres unmarked)
200 to 300 nM

Follow-up item: CONC(=O)C(=O)C(Cc1ccccc1)NC(=O)c1cccnc1-n1ccc(-c2ccc(N3CCOCC3)cc2)n1 (centres unmarked)
300 to 600 nM

What do you have for O=C(NOCC1CC1)C(=O)C(Cc1ccccc1)NC(=O)[C@H]1CCC(=O)N1Cc1ccccc1 (some centres unmarked) ?
< 200 nM

Please answer likewise for NC(=O)C(=O)C(Cc1ccccc1)NC(=O)c1cccnc1-n1ccc(-c2ccc(F)cc2)n1 (centres unmarked) [28 (comp.), reference compound]
< 200 nM

// repeat for CCONC(=O)C(=O)C(Cc1ccccc1)NC(=O)c1cccnc1-n1cc(F)c(-c2ccccc2)n1 (centres unmarked) and report
< 200 nM
